- Tested on: PPARg:RXRa 270nM:90nM, anti-RXR (NR concentration 270 nM, RXRa partner concentration 90 nM)
- Test Description: PBM binding z-score (relative to random genomic background probes); higher = stronger binding; sequences stand for … in GC…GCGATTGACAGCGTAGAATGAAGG
Endpoint Label: PBM binding z-score
Number only, no unit.

Some sequences with known PBM binding z-score results, for comparison:
> print(dat)
                      sequence.string       endpoint.label  recorded.value
1  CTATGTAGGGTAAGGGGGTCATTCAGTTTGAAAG  PBM binding z-score            7.52
2  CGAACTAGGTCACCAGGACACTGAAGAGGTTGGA  PBM binding z-score            7.07

Reported PBM binding z-score for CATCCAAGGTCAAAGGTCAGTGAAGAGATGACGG : what is it?
9.75

Further, for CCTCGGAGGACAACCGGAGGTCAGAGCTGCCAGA ?
0.642

Further, for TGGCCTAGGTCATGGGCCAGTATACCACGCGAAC ?
3.6

Further, for CGCCCAAGGTCAGCAGGTCAGTGAAAGCGACGTG ?
4.59

Further, for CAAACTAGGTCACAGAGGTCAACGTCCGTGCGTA ?
8.36

Further, for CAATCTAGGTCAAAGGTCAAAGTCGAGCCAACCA ?
11.2

Further, for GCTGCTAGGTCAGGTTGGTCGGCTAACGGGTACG ?
0.773

Further, for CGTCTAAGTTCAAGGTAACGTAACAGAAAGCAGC ?
2.11

Further, for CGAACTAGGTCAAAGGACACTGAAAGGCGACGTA ?
8.98

Further, for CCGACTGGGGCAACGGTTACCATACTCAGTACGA ?
4.07

Further, for CAAACTAGGTCACAGAGGACAAAGTCCGTGCGTA ?
7.79

Further, for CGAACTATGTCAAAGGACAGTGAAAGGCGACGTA ?
5.42

Further, for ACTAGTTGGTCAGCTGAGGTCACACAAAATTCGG ?
2.46

Further, for CATACCGGGTCAGCTAGGCCAGAGTAGGGACGGC ?
1.87

Further, for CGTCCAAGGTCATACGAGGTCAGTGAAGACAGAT ?
5.9

Further, for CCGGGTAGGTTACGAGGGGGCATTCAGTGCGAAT ?
2.96

Further, for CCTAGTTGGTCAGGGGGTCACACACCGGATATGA ?
5.76

Further, for CCTAGTAGGTTACGAGGGGGCATTCAGTGCGAAT ?
5.4

Further, for CTATGTAGTTTAAGGGGGTCATTCAGTTTGAAAG ?
5.19

Further, for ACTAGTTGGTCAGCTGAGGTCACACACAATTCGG ?
2.31
